System: SNB-19
Method description: NCI tumour cell line growth inhibition, 48 h
Active and inactive are the calls of the source. No stated cut-off is given here; in the data, active = GI50 up to about 1.1 µM and inactive = higher.
Listing of recorded GI50 by entry.

Solved cases (6 shown):
compound="CC(Cc1ccccc1)Nc1ncnc2c1ncn2C1OC(CO)CC1O (stereo not given)" target_desc=SNB-19 reported_measurement="> 100 µM (inactive)"
compound=N#Cc1c(Cl)c(C=O)c(=O)n2c1[nH]c1ccccc12 target_desc=SNB-19 reported_measurement="63.8 µM (inactive)"
compound=CCCCc1c2c(nc3c1CC/C(=C\c1ccccc1)C3=O)CCCC2 target_desc=SNB-19 reported_measurement="3.48 µM (inactive)"
compound=COc1cc2c(cc1OCCN1C(=O)c3cccc4cccc(c34)C1=O)N=C[C@@H]1CCCN1C2=O target_desc=SNB-19 reported_measurement="12.4 µM (inactive)"
compound="CC(=O)OC(C#N)CC(C)(C)/[N+]([O-])=[N+](\\[O-])C(C)(C)CC(C#N)OC(C)=O (stereo not given)" target_desc=SNB-19 reported_measurement="23.1 µM (inactive)"
compound="COC(=O)C1OC(O[C@H]2CC[C@]3(C)[C@H]4CC=C5[C@@H]6CC(C)(C)CC[C@]6(C(=O)OC6OCC(O)C(O)C6OC6OC(C)C(OC7OCC(OC8OCC(O)C(O)C8O)C(O)C7O)C(O)C6O)[C@H](O)C[C@@]5(C)[C@]4(C)CC[C@H]3C2(C)C)C(O)C(O)C1O (stereo not given in full)" target_desc=SNB-19 reported_measurement="3.08 µM (inactive)"

Q) Would you mind telling me what GI50 value was observed for `c1ccc(-c2nnc(-c3nsc4ccccc34)o2)cc1` ?
A) > 100 µM (inactive)

Q) Follow-up entry: `O=C(CP(c1ccccc1)c1ccccc1)c1cccc(C(=O)CP(c2ccccc2)c2ccccc2)c1`
A) 43.8 µM (inactive)

Q) Follow-up entry: `S=c1sc2c(s1)SCc1cccc(n1)CSc1sc(=S)sc1SCc1cccc(n1)CS2`
A) > 100 µM (inactive)

Q) Follow-up entry: `O=C(Nc1ccccc1)c1cc(S(=O)(=O)N2CCNC2=O)c(S)cc1Cl`
A) > 100 µM (inactive)

====

System: A549
Method description: NCI tumour cell line growth inhibition, 48 h
Calls of active or inactive are those of the source. Rule as the data show it: active = GI50 up to about 1.1 µM and inactive = higher.
Listing of recorded GI50 by entry.

compound="Cc1c(O)c(OC2OC(CO)C(O)C(O)C2O)cc2c1CC[C@@H]1C2(C)C(=O)C[C@]2(C)[C@@H]([C@@](C)(O)C(O)CCC(C)(C)O)[C@H](O)C[C@@]12C (stereo not given in full)" reported_measurement="> 100 µM (inactive)"
compound=CCN(CC)CCn1c2c3ccccc3ccc2c2oc(=O)c3ccccc3c21 reported_measurement="> 100 µM (inactive)"
compound=CCOC(=O)Cc1c(C)c2cc(C(=O)c3ccccc3)c(O)cc2oc1=O reported_measurement="25.8 µM (inactive)"
compound="Cc1cn(C2CCC(/C=N\\O)O2)c(=O)[nH]c1=O (stereo not given)" reported_measurement="> 100 µM (inactive)"

Q) Would you mind telling me what GI50 value was observed for `O=[N+]([O-])/C(C(Cl)=C(Cl)Cl)=C(\Nc1cccc2ccccc12)Sc1ccccc1` ?
A) 19.7 µM (inactive)

Q) Follow-up entry: `O=[N+]([O-])c1ccc(Cl)cc1N/N=C/c1ccnc2ccccc12`
A) > 100 µM (inactive)

Q) Follow-up entry: `CC(C)(C)C1=CC(=C2C=Cc3cc(O)ccc3O2)C=C(C(C)(C)C)C1=O`
A) 1.5 µM (inactive)

Q) Follow-up entry: `Cc1cc2nc(N)n[n+]([O-])c2cc1C`
A) > 100 µM (inactive)

Q) Follow-up entry: CC1OC1P(=O)(O)O (stereo not given)
A) > 100 µM (inactive)

====

Listing of recorded GI50 by entry.
Tested on: PC-3
Method description: NCI tumour cell line growth inhibition, 48 h
The source made the active and inactive calls. Rule as the data show it: active = GI50 up to about 1.1 µM and inactive = higher.

Solved cases (5 shown):
compound=C=CC(C)(C)n1cc(C2=C3OC(=O)C(c4cn(C(C)(C)C=C)c5ccccc45)=C3OC2=O)c2ccccc21 reported_measurement="> 100 µM (inactive)"
compound=Cc1nc(=O)[nH]c(NCCNCCO)c1C(=O)Nc1cccc2cc3ccccc3cc12 reported_measurement="> 100 µM (inactive)"
compound=N#Cc1c(Cl)c(C=O)c(=O)n2c1[nH]c1ccccc12 reported_measurement="55.1 µM (inactive)"
compound="CCOC(=O)NC1=C(N2CC2)C(=O)C(NC(=O)OCC)=C(N2CC2)C1=O [DIAZIQUONE]" reported_measurement="4.36 µM (inactive)"
compound=CCCCCCCCCCCCCC/C(C(=O)O)=C(\C)C(=O)O reported_measurement="38.2 µM (inactive)"

Q) Item: `COc1cccc(-c2cc(=O)c3ccc(C)nc3[nH]2)c1` Test system: PC-3 Read-out: GI50 Value: ?
A) 0.0361 µM (active)

Q) Follow-up entry: `CCCc1nnc2sc(COc3cc(Cl)c(OCc4nn5c(CCC)nnc5s4)cc3Cl)nn12`
A) > 100 µM (inactive)

Q) Follow-up entry: `Cc1cc(=O)oc2c(OS(C)(=O)=O)c(OS(C)(=O)=O)ccc12`
A) > 100 µM (inactive)

Q) Follow-up entry: `O=c1[nH]nc(Cc2ccccc2)n1/N=C/c1ccc([N+](=O)[O-])o1`
A) 3.15 µM (inactive)

Q) Follow-up entry: `CC(=O)NS(=O)(=O)c1ccc(NCc2cccc3c(=O)c4ccc(Cl)cc4oc23)cc1`
A) 38.5 µM (inactive)

Q) Follow-up entry: CC(=O)OC(C#N)CC(C)(C)/[N+]([O-])=[N+](\[O-])C(C)(C)CC(C#N)OC(C)=O (configuration not stated)
A) 15.3 µM (inactive)

Q) Follow-up entry: `CCOC(=O)c1c(-c2ccccc2)nc2ccccc2c1O`
A) > 100 µM (inactive)

Q) Follow-up entry: CCOC(=O)C(NC(=O)C(CCCCNP(=O)(OCC)OCC)NC(=O)C(C)NC(C)=O)C(C)C (configuration not stated)
A) > 100 µM (inactive)

Q) Follow-up entry: `CCCCn1c2c(c3ccccc3c1=O)C(=O)c1ccccc1-2`
A) > 100 µM (inactive)

Q) Follow-up entry: COC(=O)C1CC(C=[N+](C)C)=C(SC)N1C(=O)OCc1ccccc1 (configuration not stated)
A) > 100 µM (inactive)

Q) Follow-up entry: `CCOC(=O)c1nc2cc(C(F)(F)F)ccc2nc1Oc1ccc(C(=O)OC)cc1`
A) > 100 µM (inactive)

Q) Follow-up entry: Cc1nn(C(=O)c2ccncc2)c2c1C(c1ccc([N+](=O)[O-])cc1)SC(=N)N2 (configuration not stated)
A) > 100 µM (inactive)

Q) Follow-up entry: `COc1cc(-c2cc(OC)c(OC)c3ccc(Br)cc23)c2cc(Br)ccc2c1OC`
A) 20.6 µM (inactive)

Q) Follow-up entry: `CN1CCN(c2ccncc2S(=O)(=O)N2CCN(C)CC2)CC1`
A) > 100 µM (inactive)

Q) Follow-up entry: CN(C)c1ncnc2c1ncn2C1C=CC(COS(N)(=O)=O)C1 (configuration not stated)
A) 60.7 µM (inactive)

Q) Follow-up entry: `COC(=O)Nc1nc2cc(NS(=O)(=O)c3cccs3)ccc2[nH]1`
A) 33.9 µM (inactive)

Q) Follow-up entry: Nc1nc2cc(CNc3ccc(C(=O)NC(CCC(=O)O)C(=O)O)cc3)ccc2nc1-c1ccccc1 (configuration not stated)
A) > 10 µM (inactive)

====

System: M14
Method description: NCI tumour cell line growth inhibition, 48 h
Active and inactive are the calls of the source. Cut-off read from the data, not from the text of the source: active = GI50 up to about 1.1 µM and inactive = higher.
Measured endpoint: GI50

Solved cases (3 shown):
compound=C1CCNCC1.O=C1NC(=S)N/C1=C/c1ccccc1O target_desc=M14 reported_measurement="> 100 µM (inactive)"
compound=Cn1cnc([N+](=O)[O-])c1Sc1nccn1-c1ccccc1 target_desc=M14 reported_measurement="44.9 µM (inactive)"
compound=c1cc(-c2sc(-c3ccncc3)c(-c3ccncc3)c2-c2ccncc2)ccn1 target_desc=M14 reported_measurement="16.5 µM (inactive)"

Q) Item: `N#C/N=C(\NCCc1c[nH]c2ccccc12)NCc1ccccc1` Test system: M14 Read-out: GI50 Value: ?
A) 51.1 µM (inactive)

Q) Follow-up entry: `Cn1c(C(C)(C)OC(=O)Oc2ccccc2)cnc1[N+](=O)[O-]`
A) > 100 µM (inactive)

Q) Follow-up entry: `Cn1ccnc1Sc1ccc(/C=N/c2ccc3nc(SCC(=O)NC4CCCCC4)sc3c2)cc1[N+](=O)[O-]`
A) 38.2 µM (inactive)

Q) Follow-up entry: `CN(C1=NCCO1)c1cccc2c1CCCC2`
A) 2.23 µM (inactive)

Q) Follow-up entry: CN1CCC(C(O)(c2ccccc2)c2ccc(Br)cc2)CC1 (centres undefined)
A) 15.3 µM (inactive)

Q) Follow-up entry: `CCN(CC)CCC(=O)c1ccc(Oc2ccccc2)cc1`
A) 38.1 µM (inactive)

Q) Follow-up entry: `CN(C)CCNC(=O)c1cnn(C)c1[N+](=O)[O-]`
A) > 100 µM (inactive)

Q) Follow-up entry: `COC(=O)c1ccccc1/C=C1\Cc2ccc(C)c(C)c2C1=O`
A) > 100 µM (inactive)
